assay: self-splicing fitness, log relative to wild type (ln ratio); higher = more splicing; Tetrahymena group I intron in knt gene, E. coli kanamycin selection, DiMSum; sequences stand for … in CUCUCU…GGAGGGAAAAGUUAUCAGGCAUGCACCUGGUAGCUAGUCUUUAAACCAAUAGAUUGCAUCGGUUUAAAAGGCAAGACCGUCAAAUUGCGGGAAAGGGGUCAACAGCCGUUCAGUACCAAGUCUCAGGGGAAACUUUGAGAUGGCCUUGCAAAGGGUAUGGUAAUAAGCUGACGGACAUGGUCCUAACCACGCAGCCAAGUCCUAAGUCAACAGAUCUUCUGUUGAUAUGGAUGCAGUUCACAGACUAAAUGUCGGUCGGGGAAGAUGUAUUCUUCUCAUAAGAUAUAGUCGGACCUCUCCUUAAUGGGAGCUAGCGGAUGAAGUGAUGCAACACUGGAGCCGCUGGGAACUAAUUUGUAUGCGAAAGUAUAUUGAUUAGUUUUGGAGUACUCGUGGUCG; conditions: 30 °C;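 further: selection with 25 µg/mL kanamycin versus none on LB agar overnight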
I'd be grateful if you could share measured self-splicing fitness (ln) for these entries.
One number for each entry.

Reference set (5 entries):
>>> print(df.to_string())
             seq_string  measured
0  UGCUAGCAAUAUUACGCCCU    -0.725
1  UGGAAGCAAUAUUACGUCCG     -2.72
2  CAAAAGCAAUAUUACGCGAU        -4
3  AUAAAGCAAUAUUACGCGGG     -2.55
4  AUCCAGCAAUAUUACGUAAA      -1.3

Go through the items and report each one's self-splicing fitness (ln).
1. CGGCAGCAAUAUUACGGGAU
2. GCUUAGCAAUAUUACGACUA
3. GAGCAGCAAUAUUACGACGC

Response:
[-3.24, -1.34, 0.00947]
